This collection of values is drawn from ChEMBL document CHEMBL1153493.

studySystem: Glycogen synthase kinase-3 beta (Homo sapiens, UniProt P49841)
Sequence (P49841 whole entry): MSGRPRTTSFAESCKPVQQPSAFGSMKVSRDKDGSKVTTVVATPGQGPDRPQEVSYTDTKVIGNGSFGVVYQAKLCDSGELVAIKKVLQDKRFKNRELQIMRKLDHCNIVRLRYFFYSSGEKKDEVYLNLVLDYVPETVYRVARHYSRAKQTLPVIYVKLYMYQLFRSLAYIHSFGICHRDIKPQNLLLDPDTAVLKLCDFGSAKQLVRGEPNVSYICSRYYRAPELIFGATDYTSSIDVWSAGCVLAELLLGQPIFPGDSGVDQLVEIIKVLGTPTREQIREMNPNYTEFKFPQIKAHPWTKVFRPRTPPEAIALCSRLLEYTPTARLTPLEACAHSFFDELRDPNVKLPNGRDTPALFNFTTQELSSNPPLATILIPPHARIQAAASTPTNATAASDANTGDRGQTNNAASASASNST
experimentalProtocol: Inhibition of recombinant GSK3-beta by ELISA
measurementLabel: IC50 (µM)
Write the number in µM without appending the unit.

[[record]]
molecule = "O=C1NC(=O)/C(=C/c2ccc(Cl)cc2)N1"
studysystem = "Glycogen synthase kinase-3 beta (Homo sapiens, UniProt P49841)"
measurementlabel = "IC50"
obsvalue = 18.2


Q: Quick one: IC50 for "O[C@]12C=C(c3nccc4c3[nH]c3ccccc34)[C@@H]3CCN(CCCC/C=C\CC1)C[C@@]31C[C@@H]3/C=C\CCCCN3[C@H]12" ?
A: 12.3

Q: Then "CSc1ccc(/C=C2\NC(=O)NC2=O)cc1" ?
A: 6.9

Q: Repeat with "CCN(CC)c1ccc(/C=C2\NC(=O)NC2=O)cc1"
A: 4.2

Q: Please do the same for O=C1NC(=O)/C(=C/c2ccc(O)cc2)N1 [4-HYDROXYPHENYLMETHYLENE HYDANTOIN] as well.
A: 13.7

---

studySystem: Glycogen synthase kinase-3 beta (Homo sapiens)
experimentalProtocol: Inhibition of recombinant GSK3-beta by ELISA
measurementLabel: pIC50
Scale explanation: pIC50 corresponds to minus log10 of a concentration expressed in moles per litre.

Below are worked cases with known answers.
[[record]]
chemicalstructure = "O=C1NC(=O)/C(=C/c2ccc(-c3ccsc3)cc2)N1"
studysystem = "Glycogen synthase kinase-3 beta (Homo sapiens)"
measurementlabel = "pIC50"
obsvalue = 5.19

[[record]]
chemicalstructure = "O=C1NC(=O)/C(=C/c2ccc(-c3cccs3)cc2)N1"
studysystem = "Glycogen synthase kinase-3 beta (Homo sapiens)"
measurementlabel = "pIC50"
obsvalue = 4.87


# next compound below
Q: Identify the measured pIC50 of "CCSc1ccc(/C=C2\NC(=O)NC2=O)cc1" for Glycogen synthase kinase-3 beta (Homo sapiens).
A: 5.11
